FYI, the data here is from paper PMC10589721.

Target: T1, O-GlcNAc transferase (OGT), as used in the fluorescence activity assay (human, UniProt O15294 1-1046)
T1 sequence (looked up): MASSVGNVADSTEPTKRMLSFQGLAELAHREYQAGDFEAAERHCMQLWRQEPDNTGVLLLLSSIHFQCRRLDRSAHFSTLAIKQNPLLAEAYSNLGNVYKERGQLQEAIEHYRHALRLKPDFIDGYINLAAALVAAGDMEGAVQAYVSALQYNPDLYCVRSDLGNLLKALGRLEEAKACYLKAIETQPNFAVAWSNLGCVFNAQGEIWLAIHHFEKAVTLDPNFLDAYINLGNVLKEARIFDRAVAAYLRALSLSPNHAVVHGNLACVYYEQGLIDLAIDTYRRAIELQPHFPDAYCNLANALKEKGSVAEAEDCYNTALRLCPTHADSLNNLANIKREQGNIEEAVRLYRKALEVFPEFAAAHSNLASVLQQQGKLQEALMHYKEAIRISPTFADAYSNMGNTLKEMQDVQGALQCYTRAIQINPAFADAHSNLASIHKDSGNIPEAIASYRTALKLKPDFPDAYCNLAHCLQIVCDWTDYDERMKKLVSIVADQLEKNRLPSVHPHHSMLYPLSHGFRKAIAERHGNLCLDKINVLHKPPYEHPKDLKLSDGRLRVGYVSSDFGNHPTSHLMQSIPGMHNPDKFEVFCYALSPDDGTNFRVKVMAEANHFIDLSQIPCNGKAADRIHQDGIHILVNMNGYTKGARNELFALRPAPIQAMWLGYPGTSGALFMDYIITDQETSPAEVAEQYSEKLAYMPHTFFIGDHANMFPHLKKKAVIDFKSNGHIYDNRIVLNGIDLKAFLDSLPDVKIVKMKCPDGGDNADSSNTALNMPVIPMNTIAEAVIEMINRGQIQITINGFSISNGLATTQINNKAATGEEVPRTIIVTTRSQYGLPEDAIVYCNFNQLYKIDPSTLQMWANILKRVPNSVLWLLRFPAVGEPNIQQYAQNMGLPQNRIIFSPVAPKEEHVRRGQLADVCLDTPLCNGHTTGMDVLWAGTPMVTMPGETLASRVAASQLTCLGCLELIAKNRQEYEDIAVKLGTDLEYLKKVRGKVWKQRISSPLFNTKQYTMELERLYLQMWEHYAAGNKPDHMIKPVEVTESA
Test: enzyme inhibition kinetics
ENDPOINT LABEL: Ki (mM)
Numbers only, in mM.

Asked: So what does the record say about Ki for GDFPVMFMPKYSIIF [peptide P11] ?
Given back: 4
